These measurements were taken from ChEMBL document CHEMBL2169814.

test: Inhibition of ampotrophic murine leukemia virus envelope glycoprotein assessed as inhibition of viral entry in canine Cf2Th cells expressing human CD4 and CCR5 after 2 to 4 hrs by luciferase activity based luminescence assay
IC50 values for the compounds below.
readoutName: IC50 (µM)

1) CN1C(C)(C)CC(NC(=O)C(=O)Nc2ccc(Cl)c(F)c2)CC1(C)C; 93.4
2) N[C@H]1Cc2ccccc2[C@@H]1NC(=O)C(=O)Nc1ccc(Cl)c(F)c1; 56.9

----------
assay: Inhibition of ampotrophic murine leukemia virus envelope glycoprotein assessed as inhibition of viral entry in canine Cf2Th cells expressing human CD4 and CCR5 after 2 to 4 hrs by luciferase activity based luminescence assay
pIC50: −log10 of the molar value.
readoutName: pIC50

1) N=C(N)N[C@@H]1Cc2ccccc2[C@H]1NC(=O)C(=O)Nc1ccc(Cl)c(F)c1; < 4.00
2) N[C@@H]1Cc2ccccc2[C@H]1NC(=O)C(=O)Nc1ccc(Cl)c(F)c1; 4.07
3) N=C(N)N[C@H]1Cc2ccccc2[C@@H]1NC(=O)C(=O)Nc1ccc(Cl)c(F)c1.O=CO; < 4.00

----------
# IC50 per record follows
assay: Inhibition of recombinant HIV-1 89.6 envelope glycoprotein-120 assessed as inhibition of viral entry in canine Cf2Th cells expressing CD4/CCR5 after 2 to 4 hrs by luciferase activity based luminescence assay; type: cell-based, Human immunodeficiency virus 1
readoutName: IC50 (µM)

1. N[C@@H]1Cc2ccccc2[C@H]1NC(=O)C(=O)Nc1ccc(Cl)c(F)c1; 50
2. N[C@H]1Cc2ccccc2[C@@H]1NC(=O)C(=O)Nc1ccc(Cl)c(F)c1; 50

----------
# reported IC50; entries follow
assay: Inhibition of recombinant HIV-1 JRFL envelope glycoprotein-120 assessed as inhibition of viral entry in canine Cf2Th cells expressing CD4/CCR5 after 2 to 4 hrs by luciferase activity based luminescence assay; format: cell-based, Human immunodeficiency virus 1
readoutName: IC50 (µM)

1) N[C@H]1Cc2ccccc2[C@@H]1NC(=O)C(=O)Nc1ccc(Cl)c(F)c1; 50
2) N[C@@H]1Cc2ccccc2[C@H]1NC(=O)C(=O)Nc1ccc(Cl)c(F)c1; 50

----------
experiment: Inhibition of recombinant HIV-1 HXBc2 envelope glycoprotein-120 assessed as inhibition of viral entry in canine Cf2Th cells expressing CD4/CCR5 after 2 to 4 hrs by luciferase activity based luminescence assay; assay type: cell-based, Human immunodeficiency virus 1
Listing of recorded IC50 by entry.
readoutName: IC50 (µM)

1) N[C@@H]1Cc2ccccc2[C@H]1NC(=O)C(=O)Nc1ccc(Cl)c(F)c1; 50
2) N[C@H]1Cc2ccccc2[C@@H]1NC(=O)C(=O)Nc1ccc(Cl)c(F)c1; 50

----------
Measured Kd accompanies every entry in the list below.
assay: Binding affinity to HIV-1 YU2 gp120 at 80 to 130 uM by VP-ITC analysis; set-up: species or system Human immunodeficiency virus 1
readoutName: Kd

1. N=C(N)N[C@H]1Cc2ccccc2[C@@H]1NC(=O)C(=O)Nc1ccc(Cl)c(F)c1.O=CO; 250 nM
2. N[C@@H]1Cc2ccccc2[C@H]1NC(=O)C(=O)Nc1ccc(Cl)c(F)c1; 1100 nM
3. CC1(C)CC(NC(=O)C(=O)Nc2ccc(Br)cc2)CC(C)(C)N1; 2200 nM
4. N=C(N)N[C@@H]1Cc2ccccc2[C@H]1NC(=O)C(=O)Nc1ccc(Cl)c(F)c1; 300 nM

----------
experiment: Inhibition of ampotrophic murine leukemia virus envelope glycoprotein assessed as inhibition of viral entry in canine Cf2Th cells expressing human CD4 and CCR5 after 2 to 4 hrs by luciferase activity based luminescence assay
readoutName: IC50

1. CC1(C)CC(NC(=O)C(=O)Nc2ccc(Br)cc2)CC(C)(C)N1; > 100 µM
2. CC1(C)CC(NC(=O)C(=O)Nc2ccc(Cl)cc2)CC(C)(C)N1; > 100 µM
3. CC1(C)CC(NC(=O)C(=O)Nc2ccc(Cl)c(F)c2)CC(C)(C)N1; > 100 µM
